METHOD_NOTES: Particle size analysis on Lecotrac laser particle size analyser, pre and post nanomilling
Assay type: physicochemical
APPLIED_CONDITIONS: starting material before nanomilling
READOUT_TYPE: Pre-nanomilling 50% percentile particle size (μ)

MOLECULE	UNIT_TEXT	DATA_VALUE
O=C(NCC1CCCC1)c1cnc(Nc2ccc(F)c(Cl)c2)nc1C(F)(F)F [Ex 247]	μ	13.2
O=C(NCC1CCCCC1)c1cnc(Nc2cccc(F)c2)nc1C(F)(F)F [Example 19]	μ	5.22
N#Cc1ccc(Nc2ncc(C(=O)NCC3CCOCC3)c(C(F)(F)F)n2)cc1Cl [Ex 217]	μ	5.70
N#Cc1ccc(Nc2ncc(C(=O)NCC3CCCC3)c(C(F)(F)F)n2)cc1 [Example 176]	μ	13.15
